- system_name: T1, FcγRIIIA (form not stated) (UniProt P08637 17-208, limits assumed)
- T1 construct: also called FcγRIIIA (ELISA)
- measurement_description: ELISA
recorded_endpoint: fold increase vs WT (x)
One number for each entry, in x.

fold increase vs WT for ch4-4-20 K246N, Q419R, P396L (antibody) heavy: ASTKGPSVFPLAPSSKSTSGGTAALGCLVKDYFPEPVTVSWNSGALTSGVHTFPAVLQSSGLYSLSSVVTVPSSSLGTQTYICNVNHKPSNTKVDKKVEPKSCDKTHTCPPCPAPELLGGPSVFLFPPNPKDTLMISRTPEVTCVVVDVSHEDPEVKFNWYVDGVEVHNAKTKPREEQYNSTYRVVSVLTVLHQDWLNGKEYKCKVSNKALPAPIEKTISKAKGQPREPQVYTLPPSRDELTKNQVSLTCLVKGFYPSDIAVEWESNGQPENNYKTTPLVLDSDGSFFLYSKLTVDKSRWQRGNVFSCSVMHEALHNHYTQKSLSLSPGK is 1.1

The reported measurements were obtained from patent US20080112961A1.
